Test system: Staphylococcus aureus
Assay explanation: Radial diffusion bactericidal assay, Staphylococcus aureus
Format: cell-based
Measurement conditions: radial diffusion; PROBIT analysis; S. aureus
Ends that are not written are not given here.
Quantity: pmol added to well to achieve a 30 mm^2 bactericidal zone, S. aureus

IKISGKWKAFFRFLK [BPI.88]
9,051.04 pmol
IKKRAISFLGKKWQK [BPI.75]
9,508.60 pmol
KWKAQKRFLKKWKAAARFLK [BPI.47]
41,213.59 pmol

----------
Assay explanation: 3H-heparin binding assay (affinity and capacity)
Measurement conditions: read-out: Heparin Affinity
pKd: −log10 of the molar value. Ends that are not written are not given here.
Quantity: pKd

IKISGKWKAAKRFLK [BPI.23]
6.16
KSKVGWLIALFHKK [BPI.39]
6.12
KSKVGWLIQLFHKK-NH2 (C-terminus assumed) [BPI.13]
6.01
IKISGKWKAKKRFLK [BPI.79]
6.70
KRFLKKWKAQKRFLK [BPI.9]
5.94
IKISGKWKAQKAFLK [BPI.25]
6.46
IKISGAWAAQKRFLK [BPI.59]
6.76
IKISGKWKAQKRFLK [BPI.2]
6.46
IKIAGKWKAQKRFLK [BPI.18]
6.42
KWKAQFRFLKKSKVGWLILLFHKK [BPI.102]
5.34
IAISGKWKAQKRFLK [BPI.16]
6.64
KSKVWLIQLFHKK [BPI.11]
6.13
IKISGKWKAQKRFLKKSKVGWLIQLFHKK [BPI.63]
6.22
IKISGKWKAQFRFLK [BPI.73]
6.64
IAISGKWKAQKRFLA [BPI.60]
7.19
KSKVGALIQLFHKK [BPI.36]
6.42
KSKVLWLIQLFHKK [BPI.85]
6.17
KSKVGWLIQLFAKK [BPI.42]
6.09
CIKISGKWKAQKRFLKC [BPI.65 (ox.)]
6.80
KSKVGWLIQLFHKKKWKAQKRFLK [BPI.74]
6.66
IKISGKWAAQKRFLK [BPI.22]
6.50
Cecropin A (KWKLFKKIEKVGQNIRDGIIKAGPAVAVVGQATQIAK; ends and bridges not checked; UniProt P01507 27-63, looked up) [antibacterial peptide of lepidopteran insects (Sigma), reference compound]
6.40
KSKVGWLIQLAHKK [BPI.41]
6.33
IKISGKWKAKQRFLK [BPI.56]
6.94
KSKVGWLIQLFHKF [BPI.96]
6.33
ASKVGWLIQLFHKK [BPI.31]
6.60
